Listed here are binders together with their documented kon.
- Tested target: T1, MSLN·His protein (human, UniProt Q13421 296-580, limits assumed)
- T1 construct: Bought protein; also called human MSLN·His antigen; not shown: His tag
- T1 sequence (Q13421 other isoform, or with tags, fused parts or gaps limits assumed): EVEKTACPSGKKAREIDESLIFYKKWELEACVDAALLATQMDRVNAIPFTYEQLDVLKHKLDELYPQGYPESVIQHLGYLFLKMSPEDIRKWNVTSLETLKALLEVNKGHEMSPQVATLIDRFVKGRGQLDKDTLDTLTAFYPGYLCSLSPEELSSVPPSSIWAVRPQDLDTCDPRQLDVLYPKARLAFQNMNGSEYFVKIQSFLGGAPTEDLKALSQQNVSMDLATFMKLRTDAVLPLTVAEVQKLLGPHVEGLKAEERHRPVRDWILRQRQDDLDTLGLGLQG
- Protocol text: SPR (Biacore), antibody captured on protein A, MSLN·His as analyte
State just the number; it will be interpreted in M⁻¹ s⁻¹.

Here are 3 binders together with their reported answers.
Binder	Parameter measured	Uom	Obs value
M2339-z11-6 (antibody, IgG4, V domains shown, Humanized variant of M2339) VH: EVQLVASGGGLVQPGGSLRLSCALSGFTLRELDEFAIGWFRQAPGKEREGVSCISGTGGITHYADSVKGRFTISRDNSKTTVYLQMNSLRSEDTAVYYCAADERCTDRLIRPPTYWGQGTQVTVSS	kon	M⁻¹ s⁻¹	174000
M2339-z11-2 (antibody, IgG4, V domains shown, Humanized variant of M2339) VH: QVQLVASGGGLVQPGGSLRLSCALSGFTLRELDEFAIGWFRQAPGKEREGVSCISGTGGITHYADSVKGRFTISRDNSKTTVYLQMNSLRAEDTAVYYCAADERCTDRLIRPPTYWGQGTQVTVSS	kon	M⁻¹ s⁻¹	62300
M2339-z11-12 (antibody, IgG4, V domains shown, Humanized variant of M2339) VH: EVQLGASGGGLVQPGGSLRLSCALSGFTLRELDEFAIGWFRQAPGKEREGVSCISGTGGITHYADSVKGRFTISRDIAKTTVYLQMNSLNSEDTAVYYCAADERCTDRLIRPPTYWGQGTQVTVSS	kon	M⁻¹ s⁻¹	83800

Prompt line: Give its kon value. Item: M2339-z11-16 (antibody, IgG4, V domains shown, Humanized variant of M2339) VH: QLQLGASGGGLVQPGGSLRLSCALSGFTLRELDEFAIGWFRQAPGKEREGVSCISGTGGITHYADSVKGRFTISRDIAKTTVYLQMNSLRAEDTAVYYCAADERCTDRLIRPPTYWGQGTQVTVSS
Response line: 67800
